Cited source for all entries: patent US8278345B2

target or system: hQC (Homo sapiens)
Sequence (Q16769 29-361): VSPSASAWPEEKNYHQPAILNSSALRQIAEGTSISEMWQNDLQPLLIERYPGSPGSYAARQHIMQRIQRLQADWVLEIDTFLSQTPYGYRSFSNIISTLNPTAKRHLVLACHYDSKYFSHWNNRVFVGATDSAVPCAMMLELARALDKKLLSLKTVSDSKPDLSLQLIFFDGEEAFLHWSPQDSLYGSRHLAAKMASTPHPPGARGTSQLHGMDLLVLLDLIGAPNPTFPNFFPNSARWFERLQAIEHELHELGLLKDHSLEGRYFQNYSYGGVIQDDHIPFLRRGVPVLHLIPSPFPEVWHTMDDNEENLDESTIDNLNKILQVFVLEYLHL
assay method text: Inhibitor assay for glutaminyl cyclase activity (fluorometric, H-Gln-βNA / H-Gln-AMC)
Format: biochemical
protocol conditions: read-out: IC50
I'd be grateful if you could share measured IC50 for these entries.
One number for each entry, in nM.

Solved entries (count: 10):
[[record]]
molecule = "O=C1C(O)=C(c2ccccc2)C(c2ccc3cccc(O)c3n2)N1c1ccc2[nH]cnc2c1 (centres unmarked)"
measured_endpoint = "IC50"
recorded_number = 40

[[record]]
molecule = "CC(C)C1=C(O)C(=O)N(CCCn2ccnc2)C1c1cccs1 (centres unmarked)"
measured_endpoint = "IC50"
recorded_number = 4000

[[record]]
molecule = "Cc1ccc2c(C3C(C(=O)C4CC4)=C(O)C(=O)N3c3ccc4[nH]cnc4c3)c[nH]c2c1 (centres unmarked)"
measured_endpoint = "IC50"
recorded_number = 7420

[[record]]
molecule = "CCC1=C(O)C(=O)N(CCCn2ccnc2)C1c1ccc(OC)cc1 (centres unmarked)"
measured_endpoint = "IC50"
recorded_number = 40

[[record]]
molecule = "CCCCCC1=C(O)C(=O)N(CCCn2ccnc2)C1c1cc[nH]n1 (centres unmarked)"
measured_endpoint = "IC50"
recorded_number = 400

[[record]]
molecule = "CC(C)C1=C(O)C(=O)N(CCCn2ccnc2)C1C1CCC=CO1 (centres unmarked)"
measured_endpoint = "IC50"
recorded_number = 2200

[[record]]
molecule = "CC1=C(O)C(=O)N(c2ccc3[nH]cnc3c2)C1c1coc2ccc(C)cc2c1=O (centres unmarked)"
measured_endpoint = "IC50"
recorded_number = 310

[[record]]
molecule = "Cc1ccc(C2C(C(C)C)=C(O)C(=O)N2CCCn2ccnc2)cc1C (centres unmarked)"
measured_endpoint = "IC50"
recorded_number = 400

[[record]]
molecule = "CC(C)CC(=O)C1=C(O)C(=O)N(c2ccc3[nH]cnc3c2)C1c1ccco1 (centres unmarked)"
measured_endpoint = "IC50"
recorded_number = 1480

[[record]]
molecule = "O=C1C(O)=C(c2ccccc2)C(Cc2ccccc2)N1CCCn1ccnc1 (centres unmarked)"
measured_endpoint = "IC50"
recorded_number = 40


Can you give me IC50 for all of these, one by one?
1. O=C1C(O)=C(c2ccc(O)cc2)C(C2=CCCCC2)N1CCCn1ccnc1 (centres unmarked)
2. Cc1ccc2occ(C3C(c4ccccc4)=C(O)C(=O)N3c3ccc4[nH]cnc4c3)c(=O)c2c1 (centres unmarked)
3. Cc1ccc2occ(C3C(C(=O)C(C)(C)C)=C(O)C(=O)N3c3ccc4[nH]cnc4c3)c(=O)c2c1 (centres unmarked)

Out:
1. 1300
2. 850
3. 4000
